Biological target: TIRR (6-211)-His (UniProt Q9BRJ7 6-211)
Sequence (Q9BRJ7 6-211): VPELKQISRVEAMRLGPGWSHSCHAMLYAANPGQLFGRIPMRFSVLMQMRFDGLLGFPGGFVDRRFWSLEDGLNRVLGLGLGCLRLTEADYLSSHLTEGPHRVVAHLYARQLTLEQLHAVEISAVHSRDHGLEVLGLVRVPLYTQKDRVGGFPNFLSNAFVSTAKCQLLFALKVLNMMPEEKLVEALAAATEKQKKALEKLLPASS
Assay: SPR; SPR: 20 mM HEPES pH 6, 300 mM NaCl, 0.05% P20, 25 C; EMSA: 50 mM HEPES, 50 mM NaCl, 5% glycerol, 20 mM MgCl2, 0.01% Tween 20, 37 C 15 min, 10 nM probe
Settings: protein: recombinant; tags: His; hairpin
pKd: −log10 of the molar value.
PROPERTY MEASURED: pKd

So for GGACAAGAUGCCUUAUGUGGACUUCACCACAUAAGGCAUCUUGUCC (structured_RNA) [RNA hairpin] , the logged pKd turned out to be ~4.00
